Recorded pIC50, one value per entry.
molecular target: human IDO1 (Homo sapiens); assay: Assessment of human IDO-1 inhibitory activity in HEK cells (human IDO1/HEK293 cells, kynurenine read-out with Ehrlich reagent, absorbance 490 nm); type: cell-based; design: expressed in transfected cells; conditions: HEK Human IDO-1 cellular assay
Sequence (P14902 whole entry): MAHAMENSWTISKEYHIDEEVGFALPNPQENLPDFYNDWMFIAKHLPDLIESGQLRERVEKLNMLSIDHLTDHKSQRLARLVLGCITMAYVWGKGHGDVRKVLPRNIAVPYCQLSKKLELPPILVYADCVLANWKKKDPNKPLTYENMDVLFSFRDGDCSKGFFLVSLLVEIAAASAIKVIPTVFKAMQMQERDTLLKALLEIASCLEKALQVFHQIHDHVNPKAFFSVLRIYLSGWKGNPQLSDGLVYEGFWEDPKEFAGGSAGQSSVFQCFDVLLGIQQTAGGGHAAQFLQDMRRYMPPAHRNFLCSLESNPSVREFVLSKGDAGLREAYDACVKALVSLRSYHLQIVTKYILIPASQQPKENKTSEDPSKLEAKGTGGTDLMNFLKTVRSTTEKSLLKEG
pIC50: −log10 of the molar value.

Answered cases to consult:
{"compound": "COCC(CC(=O)O)c1ccc(N(CC(C)C)C2CCCCC2)c(NC(=O)Nc2ccc(C)cc2)c1 (single isomer, unassigned) [989-1]", "target-system": "human IDO1 (Homo sapiens)", "pIC50": "> 8.30"}
{"compound": "CCOc1ccc(Nc2cc([C@@H](CC)CC(=O)O)ccc2N(CC(C)(C)O)C2CCOCC2)c(F)c1 (single isomer, unassigned) [Example 201]", "target-system": "human IDO1 (Homo sapiens)", "pIC50": "> 7.30"}

Continue with the compound presented below.
Problem: Supply pIC50 value. Item: CCC(CC(=O)O)c1ccc(N(CC)C2CCOCC2)c(NC(=O)Nc2ccc(OC)cc2F)c1 (racemic) [Example 608]
Solution: > 8.30
